Provide the reported flash point of each item.
Give the value in °C but do not write °C after it.

Requested read-out: flash point. Entry: CCCCN(CCCC)C(=S)[S-].CCCCN(CCCC)C(=S)[S-].[Ni+2] [NICKEL DI-n-BUTYLDITHIOCARBAMATE]
260.00

Requested read-out: flash point. Entry: CCCC[O-].CCCC[O-].CCCC[O-].CCCC[O-].CCCC[O-].[Nb+5] [NIOBIUM(V) n-BUTOXIDE]
90.00

Requested read-out: flash point. Entry: [CH3][Al]([CH3])[Cl] [DIMETHYLALUMINUM CHLORIDE]
-18.00

Requested read-out: flash point. Entry: "[CH3][Ga]([CH3])[CH3]"
-1.00

Requested read-out: flash point. Entry: CCCCCCCCCCCCCC[P+](CCCCCC)(CCCCCC)CCCCCC.[Cl-] [TETRADECYL(TRIHEXYL)PHOSPHONIUM CHLORIDE]
118.00

Requested read-out: flash point. Entry: CCCC[O-].CCCC[O-].CCCC[O-].[Sb+3] [ANTIMONY(III) n-BUTOXIDE]
68.00

Requested read-out: flash point. Entry: "C[N](C)[Ga]([N](C)C)[N](C)C"
56.00

Requested read-out: flash point. Entry: CC(C)[O-].CC(C)[O-].CC(C)[O-].CC(C)[O-].[Ti+4] [TITANIUM ISOPROPOXIDE]
25.00

Requested read-out: flash point. Entry: CC[N-]C.CC[N-]C.CC[N-]C.CC[N-]C.[Ti+4] [TITANIUM TETRAKIS(ETHYLMETHYLAMIDE)]
10.00

Requested read-out: flash point. Entry: CCCC[O-].CCCC[O-].CCCC[O-].CCCC[O-].CCCC[O-].[Ta+5] [TANTALUM(V) n-BUTOXIDE]
66.00

Requested read-out: flash point. Entry: CC[N-]CC.CC[N-]CC.CC[N-]CC.CC[N-]CC.[Ti+4] [TITANIUM TETRAKIS(DIETHYLAMIDE)]
37.00

Requested read-out: flash point. Entry: "C1CCC(PC2CCCCC2)CC1"
110.00

Requested read-out: flash point. Entry: "c1ccc(P(c2ccccc2)c2ccccc2)cc1"
182.00

Requested read-out: flash point. Entry: CCC[O-].CCC[O-].CCC[O-].CCC[O-].[Ti+4] [TITANIUM n-PROPOXIDE]
45.00

Requested read-out: flash point. Entry: CC(C)[O-].CC(C)[O-].CC(C)[O-].[Cl-].[Ti+4] [TITANIUM CHLORIDE TRIISOPROPOXIDE]
22.00

Requested read-out: flash point. Entry: CC(C)(C)CCCCCC(=O)[O-].[Ag+] [SILVER NEODECANOATE]
102.00

Requested read-out: flash point. Entry: "CC(C)[O][Al]([CH3])[CH3]"
5.00

Requested read-out: flash point. Entry: CC(C)[O-].CC(C)[O-].CCOC(=O)CC(C)=O.[Al+2] [ALUMINUM DIISOPROPOXIDE ETHYLACETOACETATE]
50.00

----------
Provide the reported flash point of each item.
In your response, the unit should come after the numeric value.

Requested read-out: flash point. Entry: O=C(OCC1CCC(COC(=O)c2ccccc2)CC1)c1ccccc1 (stereo not drawn)
161.00 °C

Requested read-out: flash point. Entry: CC=CC [but-2-ene]
-73.30 °C

Requested read-out: flash point. Entry: CCOCC [ethoxyethane]
-40.00 °C

Requested read-out: flash point. Entry: CC(C)C(=O)OCC(C)(C)C(O)C(C)C (stereo not drawn)
120.00 °C

Requested read-out: flash point. Entry: OC(CBr)CCBr (stereo not drawn) [1,4-dibromobutan-2-ol]
113.00 °C

Requested read-out: flash point. Entry: O=C1CCCN1C1CCCCC1 [1-cyclohexyl-2-pyrrolidinone]
145.00 °C

Requested read-out: flash point. Entry: ClCOCCl [chloro-(chloromethoxy)methane]
19.00 °C

Requested read-out: flash point. Entry: CCCCCCCN [heptan-1-amine]
44.00 °C

Requested read-out: flash point. Entry: CCCCCCCC [octane]
16.00 °C

Requested read-out: flash point. Entry: NCCOCCO [2-(2-aminoethoxy)ethanol]
127.00 °C

Requested read-out: flash point. Entry: CC(C)CC(C)(C)CO [2,2,4-trimethylpentan-1-ol]
60.00 °C

Requested read-out: flash point. Entry: C1=CCC=C1 [cyclopenta-1,3-diene]
0.00 °C

Requested read-out: flash point. Entry: CC(C)(C)N [2-methylpropan-2-amine]
-38.00 °C

Requested read-out: flash point. Entry: CCC(C)(O)C#CC(C)(O)CC (stereo not drawn) [3,6-dimethyloct-4-yne-3,6-diol]
109.00 °C

Requested read-out: flash point. Entry: OCCCCCCO [hexane-1,6-diol]
147.00 °C

Requested read-out: flash point. Entry: Cc1cccc(N)n1 [6-methyl-2-pyridinamine]
103.00 °C

Requested read-out: flash point. Entry: "CC(C)(CO)[C@@H](O)C(=O)NCCCO"
113.00 °C

Requested read-out: flash point. Entry: OC[C@@H](O)[C@@H](O)[C@H](O)[C@@H](O)CO [(2R,3R,4R,5S)-hexane-1,2,3,4,5,6-hexol]
148.90 °C

Requested read-out: flash point. Entry: OC/C=C/CO [(E)-but-2-ene-1,4-diol]
128.00 °C

Requested read-out: flash point. Entry: CC1CNCC(C)C1 (stereo not drawn) [3,5-dimethylpiperidine]
21.50 °C

Requested read-out: flash point. Entry: CC(C)CO [2-methylpropan-1-ol]
30.00 °C

Requested read-out: flash point. Entry: OCCCOCCCO [3-(3-hydroxypropoxy)propan-1-ol]
123.89 °C

Requested read-out: flash point. Entry: CCCCCCCO [heptan-1-ol]
73.00 °C

Requested read-out: flash point. Entry: NCc1ccccc1 [phenylmethanamine]
72.00 °C

Requested read-out: flash point. Entry: CCN(C=O)CC [N,N-diethylformamide]
60.00 °C

Requested read-out: flash point. Entry: CCCCCCCCCO [nonan-1-ol]
80.00 °C

Requested read-out: flash point. Entry: N#Cc1cccnc1 [3-pyridinecarbonitrile]
84.00 °C

Requested read-out: flash point. Entry: C1CCC(NC2CCCCC2)CC1 [N-cyclohexylcyclohexanamine]
103.00 °C

Requested read-out: flash point. Entry: C=C(C)C [2-methylprop-1-ene]
-116.00 °C

Requested read-out: flash point. Entry: CCC(O)CC [pentan-3-ol]
40.00 °C

Requested read-out: flash point. Entry: CC(O)CNCC(C)O (stereo not drawn) [1-(2-hydroxypropylamino)propan-2-ol]
126.00 °C

Requested read-out: flash point. Entry: OCC#CCO [but-2-yne-1,4-diol]
152.00 °C

Requested read-out: flash point. Entry: C#CCC(C)C [4-methylpent-1-yne]
-4.00 °C

Requested read-out: flash point. Entry: Brc1cccnc1 [3-bromopyridine]
51.00 °C

Requested read-out: flash point. Entry: C=CCN [prop-2-en-1-amine]
-28.00 °C

Requested read-out: flash point. Entry: COC(C)(C)C [2-methoxy-2-methylpropane]
-34.44 °C

Requested read-out: flash point. Entry: CC(C)c1ccccc1 [isopropylbenzene]
46.00 °C

Requested read-out: flash point. Entry: CCN(CC)C(C)=O [N,N-diethylacetamide]
70.00 °C

Requested read-out: flash point. Entry: c1ccc(COCc2ccccc2)cc1 [phenylmethoxymethylbenzene]
135.00 °C

Requested read-out: flash point. Entry: C/C=C\CC [(Z)-pent-2-ene]
-18.00 °C

Requested read-out: flash point. Entry: N#Cc1ccccn1 [2-pyridinecarbonitrile]
89.00 °C

Requested read-out: flash point. Entry: N#Cc1ccncc1 [4-pyridinecarbonitrile]
88.00 °C

Requested read-out: flash point. Entry: CC(C)(O)C#CC(C)(C)O [2,5-dimethylhex-3-yne-2,5-diol]
73.90 °C
